assay-details: probe aDKK1 binding to arrayed compounds – biochemical, biotinylated probe, 635/667 nm fluorescence, primary screen (AID 1099);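 further: score merges 667nm spot fluorescence with signal to noise across triplicate slides; reference of the scale not given here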
condition-context: small-molecule microarray, higher = more signal
Binary call on composite z-score: Fulfilled from 0.3 upward, Not fulfilled beneath that.

Decide: composite z-score of COc1ccc(C(=O)Nc2cccc(CN3C(=O)[C@@]4(O[C@@H](CCn5cc([C@H](O)c6ccccc6)nn5)[C@H]([Si](C)(C)c5ccc(OC)cc5)[C@H]4C)c4ccccc43)c2)cc1 >= 0.3?
Not fulfilled

Same read-out for CN1C(=O)C2C(C1=O)C1C=C(c3ccc(CO)cc3)C2C(C2CC2)N1Cc1cc2c(cc1Br)OCO2 (stereo not drawn) ?
Not fulfilled

Same read-out for CCCC[C@H]1OB(O)C[C@H]2C1=C(COc1ccccc1)C[C@H]1C(=O)N(Cc3ccccc3)C(=O)[C@H]12 ?
Not fulfilled

Same read-out for O=C1c2ccccc2[C@](Cc2ccccc2I)(C(=O)O)[C@H](c2ccc(CO)cc2)N1Cc1ccccc1C(F)(F)F ?
Not fulfilled

Same read-out for CCOC(=O)C1=CC[C@@H](c2ccccc2)N(S(=O)(=O)c2ccc(C)cc2)[C@H]1c1ccc(C#N)cc1 ?
Fulfilled

Same read-out for O=C1OCC=C[C@H]2OC34C=CCN(c5ccc6ccccc6c5)C(=O)[C@H]3N(CCO)C(=O)[C@@H]4[C@@H]12 (stereo partly drawn) ?
Not fulfilled

Same read-out for [N-]=[N+]=NCc1ccccc1C[C@@]1(C(=O)NCc2ccccc2)N=C(c2ccc(OCCCO)cc2)O[C@@H]1c1ccccc1CN=[N+]=[N-] ?
Fulfilled

Same read-out for C=CCC(OC(C)=O)[C@@H]1[C@@H](N(Cc2cc3ccccc3o2)C(=O)c2cccc3ccccc23)c2cc(OCCCO)ccc2N1C(=O)Cc1ccc(OC)cc1 (stereo partly drawn) ?
Not fulfilled

Same read-out for O=C(CS)NCCCCCCNC(=O)[C@H]1C[C@H]2C(=O)N3CCC[C@H]3C(=O)N2[C@H]1c1ccc(O)cc1 ?
Not fulfilled

Same read-out for C[C@H]1C2[C@H](Cc3ccccc3)NC(=O)[C@]23C(=O)N[C@H](Cc2ccccc2)C(=O)N[C@H](Cc2ccccc2)C(=O)NC/C=C/CCC/C=C/C3[C@@H]2O[C@]12C (stereo partly drawn) ?
Not fulfilled

Same read-out for CC(C)(C)OC(=O)CC[C@@]1(C(=O)NCC(O)CO)N=C(c2ccc(OCCCO)cc2)O[C@@H]1c1ccccc1 (stereo partly drawn) ?
Fulfilled

Same read-out for [N-]=[N+]=NCc1ccccc1[C@H]1OC(c2ccc(OCCCO)cc2)=N[C@@]1(Cc1ccccc1)C(=O)NCC(O)CO (stereo partly drawn) ?
Fulfilled

Same read-out for CCCNC(=O)[C@@]1(C)c2ccccc2C(=O)N(Cc2cc(F)cc(C(F)(F)F)c2)[C@H]1c1ccc(CO)cc1 ?
Not fulfilled

Same read-out for Cc1ccc([C@H]2C(C(=O)O)=C[C@@H](C(C)C)N2S(=O)(=O)c2ccc(C)cc2)cc1 ?
Fulfilled

Same read-out for COCCOC(=O)N1C(=O)[C@@]2(c3cc(C#CCCO)ccc31)[C@H](C(=O)NC[C@H](O)c1ccccc1)[C@H]1C(=O)O[C@H](c3ccccc3)[C@H](c3ccccc3)N1[C@@H]2c1ccc(OCCO)cc1 ?
Not fulfilled

Same read-out for O=C1O[C@H](c2ccccc2)[C@H](c2ccccc2)N2[C@H]1[C@@H](C(=O)NC[C@H](O)c1ccccc1)[C@]1(C(=O)Nc3ccc(C#CC4(O)CCCCCC4)cc31)[C@H]2c1ccccc1OCCO ?
Not fulfilled

Same read-out for CCCNC(=O)[C@@]1(C)c2ccccc2C(=O)N(Cc2ccc(OC(F)(F)F)cc2)[C@H]1c1ccc(CO)cc1 ?
Not fulfilled

Same read-out for O=C1C2C=CC(C(O)c3cccc4ccccc34)N(n3cnnc3)C2C(=O)N1Cc1ccccc1 (stereo not drawn) ?
Fulfilled

Where do the numbers come from? From PubChem BioAssay.
